- Target or system: PI3K-α (PIK3CA) in MDA-MB-453 cells (Homo sapiens, UniProt P42336)
- Sequence (P42336 whole entry, one chain of several): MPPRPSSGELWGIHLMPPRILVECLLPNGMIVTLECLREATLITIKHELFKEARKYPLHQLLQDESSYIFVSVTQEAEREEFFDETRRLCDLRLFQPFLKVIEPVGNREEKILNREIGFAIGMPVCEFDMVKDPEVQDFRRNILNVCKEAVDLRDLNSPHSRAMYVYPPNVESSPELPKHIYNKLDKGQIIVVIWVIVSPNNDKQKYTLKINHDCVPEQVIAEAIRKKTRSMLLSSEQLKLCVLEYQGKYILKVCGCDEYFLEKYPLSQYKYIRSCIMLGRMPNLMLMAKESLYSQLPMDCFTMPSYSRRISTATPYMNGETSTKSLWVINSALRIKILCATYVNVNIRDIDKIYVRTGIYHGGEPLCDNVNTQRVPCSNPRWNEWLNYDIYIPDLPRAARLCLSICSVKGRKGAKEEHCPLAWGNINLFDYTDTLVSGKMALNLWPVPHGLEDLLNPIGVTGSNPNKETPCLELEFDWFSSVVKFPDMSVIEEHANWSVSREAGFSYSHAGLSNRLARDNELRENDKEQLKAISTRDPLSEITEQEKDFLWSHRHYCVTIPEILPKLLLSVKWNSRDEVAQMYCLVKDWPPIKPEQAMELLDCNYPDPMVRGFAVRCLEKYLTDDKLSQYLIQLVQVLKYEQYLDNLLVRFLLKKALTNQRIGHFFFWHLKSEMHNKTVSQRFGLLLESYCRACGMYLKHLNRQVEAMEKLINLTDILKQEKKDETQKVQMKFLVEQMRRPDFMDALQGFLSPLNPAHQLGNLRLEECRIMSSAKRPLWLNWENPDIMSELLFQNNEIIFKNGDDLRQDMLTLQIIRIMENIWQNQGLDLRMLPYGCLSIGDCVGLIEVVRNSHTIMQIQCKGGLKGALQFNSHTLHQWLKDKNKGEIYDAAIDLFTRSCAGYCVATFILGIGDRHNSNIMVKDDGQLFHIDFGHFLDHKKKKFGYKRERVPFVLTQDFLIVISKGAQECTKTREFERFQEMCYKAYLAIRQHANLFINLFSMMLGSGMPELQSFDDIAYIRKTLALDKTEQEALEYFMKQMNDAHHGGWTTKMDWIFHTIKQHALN
- Experiment notes: PI3K-alpha kinase (PIK3CA) in vitro cell based assay, MDA-MB-453 cells, SureFire Ultra AlphaLisa
- Measurement context: read-out: PI3K-α (PIK3CA) in vitro cell based assay IC50
- Experimental: PI3K-Alpha Kinase (PIK3CA) Activity In Vitro Cell Based Assay and Determining IC50 Values for Inhibitors The MDA-MB-453 (ATCC-HTB-131) cell line was obtained from the American Type Culture Collection (Manassas, VA). Cells were maintained in Dulbecco's Modified Eagle Media (DMEM, Gibco 11965-092) supplemented with 10% Fetal Bovine Serum, heat inactivated (FBS HI, Gibco 10082-147), 1× non-essential amino acids (NEAA, Gibco 11140-050), and 1 mM sodium pyruvate (Gibco 11360-070). […]
Below, each entry is listed with its recorded IC50.

Fill blank: measured IC50 of the molecule Cc1cc(C(C)Nc2ccccc2C(=O)O)c2oc(-c3ccc4c(C)nn(C)c4c3)cc(=O)c2c1 (single isomer, unassigned) [Example 27] is ____. < 50 nM

* * *

Below, each entry is listed with its recorded IC50.
- Target or system: PI3K-α (PIK3CA) wild-type (WT), p110α/p85α complex (Homo sapiens, UniProt P42336)
- Construct: Recombinant, catalytically active human full length PIK3KA Wild-type and H1047R mutant; 6×His (N); purchased EMD Millipore Sigma 14-602M
- Experiment notes: PI3K-alpha kinase (PIK3CA) biochemical activity, ADP-Glo, wild-type
- Measurement context: Soy PI lipid substrate

Fill blank: measured IC50 of the compound Cc1cc(C(C)Nc2ccccc2C(=O)O)c2oc(-c3ccc4c(c3)OCO4)c(C)c(=O)c2c1 (single isomer, unassigned) [Example 93] is ____. 500 to 1000 nM

Next record, please: Cc1cc(C(C)Nc2ccccc2C(=O)O)c2oc(-c3cc4ccncc4o3)c(C)c(=O)c2c1 (single isomer, unassigned) [Example 151] 500 to 1000 nM

Next record, please: COc1ccc2nc(-c3cc(=O)c4cc(C)cc(C(C)Nc5ccccc5C(=O)O)c4o3)cn2c1 (single isomer, unassigned) [Example 2] 1000 to 5000 nM

* * *

Below, each entry is listed with its recorded pIC50.
- Target or system: PI3K-α (PIK3CA) in MDA-MB-453 cells (Homo sapiens)
- Experiment notes: PI3K-alpha kinase (PIK3CA) in vitro cell based assay, MDA-MB-453 cells, SureFire Ultra AlphaLisa
- Measurement context: read-out: PI3K-α (PIK3CA) in vitro cell based assay IC50
- Experimental: PI3K-Alpha Kinase (PIK3CA) Activity In Vitro Cell Based Assay and Determining IC50 Values for Inhibitors The MDA-MB-453 (ATCC-HTB-131) cell line was obtained from the American Type Culture Collection (Manassas, VA). Cells were maintained in Dulbecco's Modified Eagle Media (DMEM, Gibco 11965-092) supplemented with 10% Fetal Bovine Serum, heat inactivated (FBS HI, Gibco 10082-147), 1× non-essential amino acids (NEAA, Gibco 11140-050), and 1 mM sodium pyruvate (Gibco 11360-070). […]
pIC50: −log10 of the molar value.

# annotated cases, reported pIC50 shown
Fill blank: measured pIC50 of the compound Cc1cc([C@@H](C)Nc2cccnc2C(=O)O)c2oc(-c3ccc4nc(C)sc4n3)cc(=O)c2c1 [Example 239] is ____. 6.30 to 7.00

Next record, please: Cc1cc([C@@H](C)Nc2ccc(F)cc2C(=O)O)c2oc(-c3ccc4cnn(C)c4c3)cc(=O)c2c1 [Example 238] > 7.30

Next record, please: Cc1cc([C@@H](C)Nc2cccnc2C(=O)O)c2oc(-c3ccc4nn(C)cc4c3)c(C)c(=O)c2c1 [Example 240] 7.00 to 7.30

Next record, please: Cc1cc([C@@H](C)Nc2ccc(F)cc2C(=O)O)c2oc(-c3ccc4nc(C)sc4n3)c(C)c(=O)c2c1 [Example 254] > 7.30

Next record, please: Cc1cc(C(C)Nc2ccccc2C(=O)O)c2oc(-c3ccc4c(cnn4C)c3)c(C)c(=O)c2c1 (single isomer, unassigned) [Example 150] > 7.30

Next record, please: Cc1cc(C(C)Nc2ccccc2C(=O)O)c2oc(-c3ccc4cnn(C)c4c3)cc(=O)c2c1 (single isomer, unassigned) [Example 25] 7.00 to 7.30

Next record, please: Cc1cc(C(C)Nc2ccccc2C(=O)O)c2oc(-c3ccc4cnn(C)c4c3)c(C)c(=O)c2c1 (single isomer, unassigned) [Example 149] > 7.30

Next record, please: Cc1cc(C(C)Nc2ccc(Cl)nc2C(=O)O)c2oc(-c3ccc4cc[nH]c4n3)cc(=O)c2c1 (single isomer, unassigned) [Example 215] > 7.30

Could you now consider this next compound?
Fill blank: measured pIC50 of the compound Cc1cc(C(C)Nc2ccccc2C(=O)O)c2oc(-c3ccc4cnn(C)c4n3)cc(=O)c2c1 (single isomer, unassigned) [Example 82] is ____. 6.30 to 7.00

* * *

- Target or system: PI3K-α (PIK3CA) in MDA-MB-453 cells (Homo sapiens)
- Experiment notes: PI3K-alpha kinase (PIK3CA) in vitro cell based assay, MDA-MB-453 cells, SureFire Ultra AlphaLisa
- Measurement context: read-out: PI3K-α (PIK3CA) in vitro cell based assay IC50
Property label: IC50

# annotated cases, reported IC50 shown
Please tell me: IC50 of Cc1cc([C@@H](C)Nc2ccc(C(F)(F)F)cc2C(=O)O)c2oc(-c3ccc4nc(C)sc4n3)c(C)c(=O)c2c1 , system PI3K-α (PIK3CA) in MDA-MB-453 cells (Homo sapiens)? 100 to 500 nM

Next record, please: Cc1cc([C@@H](C)Nc2cccc(F)c2C(=O)O)c2oc(-c3cc4cnccc4o3)c(C)c(=O)c2c1 < 50 nM

Next record, please: Cc1cc([C@@H](C)Nc2ccc(C(F)(F)F)nc2C(=O)O)c2oc(-c3ccc4nn(C)cc4c3)c(C)c(=O)c2c1 < 50 nM

Next record, please: CC(Nc1ccccc1C(=O)O)c1cc(F)cc2c(=O)cc(-c3ccc4nn(C)cc4c3)oc12 (single isomer, unassigned) [Example 156] > 500 nM

Next record, please: COc1ccc2cc(-c3cc(=O)c4cc(C)cc([C@@H](C)Nc5ccccc5C(=O)O)c4o3)ccc2n1 50 to 100 nM

More entries:
Please tell me: IC50 of Cc1cc([C@@H](C)Nc2cccc(F)c2C(=O)O)c2oc(-c3ccc4cc[nH]c4n3)cc(=O)c2c1 , system PI3K-α (PIK3CA) in MDA-MB-453 cells (Homo sapiens)? 50 to 100 nM

Next record, please: Cc1cc([C@@H](C)Nc2ccccc2C(=O)O)c2oc(-c3ccc4nc(C)oc4n3)c(C)c(=O)c2c1 < 50 nM

* * *

- Target or system: PI3K-α (PIK3CA) in MDA-MB-453 cells (Homo sapiens)
- Experiment notes: PI3K-alpha kinase (PIK3CA) in vitro cell based assay, MDA-MB-453 cells, SureFire Ultra AlphaLisa
- Measurement context: read-out: PI3K-α (PIK3CA) in vitro cell based assay IC50
pIC50: −log10 of the molar value.
Below, each entry is listed with its recorded pIC50.

Fill blank: measured pIC50 of the compound Cc1cc(C(C)Nc2ccccc2C(=O)O)c2oc(-c3ccc4nc(C)sc4n3)cc(=O)c2c1 (single isomer, unassigned) is ____. > 7.30

Next record, please: Cc1cc(C(C)Nc2ccccc2C(=O)O)c2oc(-c3ccc4[nH]ncc4c3)cc(=O)c2c1 (single isomer, unassigned) > 7.30

Next record, please: Cc1cc(C(C)Nc2ccc(Cl)nc2C(=O)O)c2oc(-c3ccc4nc(C)cn4c3)c(C)c(=O)c2c1 (single isomer, unassigned) 7.00 to 7.30

Next record, please: Cc1cc(C(C)Nc2ccccc2C(=O)O)c2oc(-c3cc4ccccc4[nH]3)cc(=O)c2c1 (single isomer, unassigned) > 7.30

Next record, please: Cc1cc(C(C)Nc2cccc(F)c2C(=O)O)c2oc(-c3ccc4cnn(C)c4c3)cc(=O)c2c1 (single isomer, unassigned) [Example 222] 6.30 to 7.00

Next record, please: Cc1cc([C@@H](C)Nc2ccccc2C(=O)O)c2oc(-c3cc(C(F)(F)F)c4nn(C)cc4c3)cc(=O)c2c1 7.00 to 7.30

* * *

- Target or system: PI3K-α (PIK3CA) H1047R mutant, p110α/p85α complex (Homo sapiens, UniProt P42336, H1047R)
- Construct: Recombinant, catalytically active human full length PIK3KA Wild-type and H1047R mutant; 6×His (N); purchased EMD Millipore Sigma 14-792M
- Sequence (P42336 whole entry H1047R): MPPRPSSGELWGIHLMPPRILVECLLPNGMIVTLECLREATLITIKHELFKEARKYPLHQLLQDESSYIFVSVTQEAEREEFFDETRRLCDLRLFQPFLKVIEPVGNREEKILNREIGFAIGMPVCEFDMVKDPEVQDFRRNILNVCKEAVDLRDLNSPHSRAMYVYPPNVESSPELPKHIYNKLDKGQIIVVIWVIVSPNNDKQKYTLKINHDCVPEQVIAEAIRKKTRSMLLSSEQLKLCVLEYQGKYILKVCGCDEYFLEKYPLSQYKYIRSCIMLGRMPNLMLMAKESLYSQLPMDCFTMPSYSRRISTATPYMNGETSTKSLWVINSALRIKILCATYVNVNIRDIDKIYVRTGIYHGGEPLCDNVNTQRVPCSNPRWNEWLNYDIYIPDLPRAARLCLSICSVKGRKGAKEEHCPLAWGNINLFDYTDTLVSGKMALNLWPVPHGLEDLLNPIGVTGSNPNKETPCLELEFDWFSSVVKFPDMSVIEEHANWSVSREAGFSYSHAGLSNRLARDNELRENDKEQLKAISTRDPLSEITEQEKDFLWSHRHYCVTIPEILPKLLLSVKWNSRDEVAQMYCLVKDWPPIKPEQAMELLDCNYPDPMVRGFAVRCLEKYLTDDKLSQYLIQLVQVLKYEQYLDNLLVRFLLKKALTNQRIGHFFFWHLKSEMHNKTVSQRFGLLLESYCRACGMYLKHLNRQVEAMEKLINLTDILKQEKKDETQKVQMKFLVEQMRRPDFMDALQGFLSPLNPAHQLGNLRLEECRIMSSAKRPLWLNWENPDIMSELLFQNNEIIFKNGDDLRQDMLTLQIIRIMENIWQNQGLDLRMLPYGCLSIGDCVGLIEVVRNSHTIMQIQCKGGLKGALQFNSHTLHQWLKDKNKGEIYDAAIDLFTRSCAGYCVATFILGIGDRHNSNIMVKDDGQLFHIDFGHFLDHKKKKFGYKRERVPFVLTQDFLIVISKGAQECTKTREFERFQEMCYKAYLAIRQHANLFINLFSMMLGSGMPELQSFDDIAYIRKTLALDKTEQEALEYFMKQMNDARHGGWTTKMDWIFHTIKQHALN
- Sequence (P27986 whole entry partner): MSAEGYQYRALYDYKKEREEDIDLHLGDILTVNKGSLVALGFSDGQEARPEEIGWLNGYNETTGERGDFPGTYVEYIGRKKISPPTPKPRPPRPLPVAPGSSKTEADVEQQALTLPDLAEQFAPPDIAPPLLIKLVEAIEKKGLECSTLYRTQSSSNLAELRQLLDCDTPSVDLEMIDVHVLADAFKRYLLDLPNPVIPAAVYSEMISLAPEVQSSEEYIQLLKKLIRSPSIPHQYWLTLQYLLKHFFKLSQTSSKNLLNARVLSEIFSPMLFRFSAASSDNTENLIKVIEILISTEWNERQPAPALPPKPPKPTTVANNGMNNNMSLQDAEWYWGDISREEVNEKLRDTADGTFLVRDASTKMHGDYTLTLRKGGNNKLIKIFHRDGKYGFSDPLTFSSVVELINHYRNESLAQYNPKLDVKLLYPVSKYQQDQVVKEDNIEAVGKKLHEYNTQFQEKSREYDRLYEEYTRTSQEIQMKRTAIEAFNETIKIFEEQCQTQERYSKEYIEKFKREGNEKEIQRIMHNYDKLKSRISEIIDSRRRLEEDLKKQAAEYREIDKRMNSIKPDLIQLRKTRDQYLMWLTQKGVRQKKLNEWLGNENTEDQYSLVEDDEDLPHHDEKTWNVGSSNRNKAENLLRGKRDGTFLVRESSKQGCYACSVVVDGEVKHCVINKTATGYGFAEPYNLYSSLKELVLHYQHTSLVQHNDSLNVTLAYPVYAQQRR
- Experiment notes: PI3K-alpha kinase (PIK3CA) biochemical activity, ADP-Glo, H1047R mutant
- Measurement context: Soy PI lipid substrate
- Text: PI3K-Alpha Kinase (PIK3CA) Activity, Wild-Type and H1047R Mutant and Determining IC50 Values for Inhibitors Recombinant, catalytically active human full length PIK3KA Wild-type and H1047R mutant were purchased as 1:1 complex of N-terminal 6×his tagged p110α (catalytic) and untagged p85α (regulatory subunit) from EMD Millipore Sigma (cat. no. 14-602M and 14-792M, respectively). […]
pIC50: −log10 of the molar value.
Property label: pIC50

# annotated cases, reported pIC50 shown
Please tell me: pIC50 of Cc1cc([C@@H](C)Nc2ccc(C)nc2C(=O)O)c2oc(-c3ccc4nc(C)sc4n3)cc(=O)c2c1 [Example 250] , system PI3K-α (PIK3CA) H1047R mutant, p110α/p85α complex (Homo sapiens, UniProt P42336, H1047R)? 5.30 to 6.00

Next record, please: Cc1cc(C(C)Nc2ccccc2C(=O)O)c2oc(-c3ccc4nn(C)cc4n3)c(C)c(=O)c2c1 (single isomer, unassigned) [Example 130] > 6.30

Next record, please: Cc1cc(C(C)Nc2ccccc2C(=O)O)c2oc(-n3cc4ccccc4n3)cc(=O)c2c1 (single isomer, unassigned) [Example 50] > 6.30

More entries:
Please tell me: pIC50 of Cc1cc(C(C)Nc2cccc(F)c2C(=O)O)c2oc(-c3ccc4cnn(C)c4c3)cc(=O)c2c1 (single isomer, unassigned) [Example 221] , system PI3K-α (PIK3CA) H1047R mutant, p110α/p85α complex (Homo sapiens, UniProt P42336, H1047R)? 5.30 to 6.00

Next record, please: Cc1cc([C@@H](C)Nc2cccc(F)c2C(=O)O)c2oc(-c3ccc4nn(C)cc4c3)c(C)c(=O)c2c1 [Example 227] > 6.30

Next record, please: Cc1cc([C@@H](C)Nc2ccc(C(F)(F)F)cc2C(=O)O)c2oc(-c3ccc4nn(C)cc4c3)c(C)c(=O)c2c1 [Example 235] > 6.30

The measurements presented in this section are drawn from patent US11878970B2.
